Each entry below carries its reported pIC50.
Target: Cdk9/cyclinT1 (Homo sapiens, UniProt P50750)
Sequence (P50750 whole entry): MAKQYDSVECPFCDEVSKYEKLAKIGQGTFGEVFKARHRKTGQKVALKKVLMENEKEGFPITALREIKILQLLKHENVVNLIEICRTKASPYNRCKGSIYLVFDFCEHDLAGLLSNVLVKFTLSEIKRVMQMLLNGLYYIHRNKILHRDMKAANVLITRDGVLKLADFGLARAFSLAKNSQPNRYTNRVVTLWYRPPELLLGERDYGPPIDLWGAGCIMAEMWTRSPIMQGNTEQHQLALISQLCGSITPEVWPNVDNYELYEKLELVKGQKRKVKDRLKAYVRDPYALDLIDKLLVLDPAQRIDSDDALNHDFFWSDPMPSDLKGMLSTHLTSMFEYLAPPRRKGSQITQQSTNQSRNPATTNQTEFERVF
Sequence (O60563 whole entry partner): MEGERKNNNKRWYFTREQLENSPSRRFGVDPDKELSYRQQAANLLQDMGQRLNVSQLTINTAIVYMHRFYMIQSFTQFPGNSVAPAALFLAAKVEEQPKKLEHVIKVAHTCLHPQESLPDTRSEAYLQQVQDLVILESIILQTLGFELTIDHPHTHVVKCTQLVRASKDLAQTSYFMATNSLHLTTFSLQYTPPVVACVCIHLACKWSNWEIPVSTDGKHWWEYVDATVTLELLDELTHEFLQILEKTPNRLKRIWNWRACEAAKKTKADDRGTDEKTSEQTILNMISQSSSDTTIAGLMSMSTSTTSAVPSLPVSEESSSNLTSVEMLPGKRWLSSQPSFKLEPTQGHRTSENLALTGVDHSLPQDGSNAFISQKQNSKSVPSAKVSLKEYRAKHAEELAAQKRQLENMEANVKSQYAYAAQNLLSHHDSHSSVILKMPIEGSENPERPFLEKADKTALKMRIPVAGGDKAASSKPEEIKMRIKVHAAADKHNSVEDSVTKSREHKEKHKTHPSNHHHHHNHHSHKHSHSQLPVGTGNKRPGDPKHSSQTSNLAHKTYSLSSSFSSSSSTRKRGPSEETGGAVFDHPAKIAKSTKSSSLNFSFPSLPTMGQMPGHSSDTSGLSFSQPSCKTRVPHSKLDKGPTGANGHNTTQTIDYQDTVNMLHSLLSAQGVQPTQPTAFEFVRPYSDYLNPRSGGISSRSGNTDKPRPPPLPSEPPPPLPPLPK
Assay: Cdk9/cyclinT1 IMAP protocol (fluorescence polarization)
Details: IC-50, CDK9; lower limit of assay 0.0005 micromolar
Field pIC50 (float): negative decimal logarithm of the concentration in molar.

COCCNC(=O)[C@H]1CC[C@H](Nc2cc(-c3cccc(NCC4(C#N)CCOCC4)n3)c(Cl)cn2)CC1; 9.10
CC(C)N[C@@H]1CC[C@@H](Nc2cc(-c3cccc(NCC4(C#N)CCOCC4)n3)c(Cl)cn2)C1 (relative stereo); 9.22
CO[C@H]1CCN([C@H]2CC[C@@H](Nc3cc(-c4cccc(NCC5(C#N)CCOCC5)n4)c(Cl)cn3)CC2)C1; 8.27

Could you now look at the following compound, please?
Lab note: need pIC50 for CC1(CNc2nc(-c3cc(N[C@H]4CC[C@@H](N)CC4)ncc3Cl)ccc2F)CCOCC1 on Cdk9/cyclinT1 (Homo sapiens, UniProt P50750), anyone have it?
8.41
